- System: Spontaneously Hypertensive rat
- Test method notes: antihypertensive activity, Spontaneously Hypertensive Rat (Table II)
- Assay type: in vivo
- Condition info: SHR; 30 mg/kg oral
Where a name gives a salt, the structure may show the parent alone.
Kindly apply the following: met if ΔBP 2 hours is less than -50 mm Hg, not met in every other case.

• Cl.NS(=O)(=O)c1cc2c(cc1Cl)CN(CCCN1CCN(C(=O)c3ccccc3)CC1)C2=O.O = not met
• COc1ccccc1N1CCN(CCCN2Cc3cc(Cl)c(S(N)(=O)=O)cc3C2=O)CC1 = met
• NS(=O)(=O)c1cc2c(cc1Cl)CN(CCCN1CCN(c3cccc(Cl)c3)CC1)C2=O [Example II, hydrochloride hemihydrate] = not met
• COc1ccccc1N1CCN(CCCCN2Cc3cc(Cl)c(S(N)(=O)=O)cc3C2=O)CC1 = met

Please turn your attention to the following entry.
Given the entry Cc1ccccc1N1CCN(CCCN2Cc3cc(Cl)c(S(N)(=O)=O)cc3C2=O)CC1 , would its reported ΔBP 2 hours be below -50 mm Hg?
not met

* * *

- Tested on: Spontaneously Hypertensive rat
- Test method notes: antihypertensive activity, Spontaneously Hypertensive Rat (Table II)
- Format: in vivo
- Condition info: SHR; 30 mg/kg oral
Counter-ions that a name gives are not always drawn.
Kindly apply the following: true if ΔBP 4 hours is less than -10 mm Hg, false in every other case.

Given the entry NS(=O)(=O)c1cc2c(cc1Cl)CN(CCCN1CCN(c3cccc(C(F)(F)F)c3)CC1)C2=O [Example IX, hydrochloride hemihydrate] , would its reported ΔBP 4 hours be below -10 mm Hg?
true

* * *

- Test method notes: conscious rat diuretic screen of Lipschitz (Table I)
- Assay type: in vivo, rat (female Sprague Dawley; male Okamoto-Aoki)
- Condition info: Rattus norvegicus, po, 30 mg/kg oral; female Sprague Dawley rats; vs control; read-out: K+ Ratio
Where a name gives a salt, the structure may show the parent alone.
Quantity measured: response vs control in vivo at 30 mg/kg
Just the number plus its unit, please.

The following compounds have reported results that may help.
• NS(=O)(=O)c1cc2c(cc1Cl)CN(CCCN1CCN(c3cccc(C(F)(F)F)c3)CC1)C2=O [Example IX, hydrochloride hemihydrate] = 140%
• NS(=O)(=O)c1cc2c(cc1Cl)CN(CCCN1CCN(C(=O)c3ccc(F)cc3)CC1)C2=O [Example VIII] = 99%
• COc1ccccc1N1CCN(CCCCN2Cc3cc(Cl)c(S(N)(=O)=O)cc3C2=O)CC1 [Example XI] = 137%

Field request: response vs control in vivo at 30 mg/kg | item: Cl.N#Cc1cccnc1N1CCN(CCCN2Cc3cc(Cl)c(S(N)(=O)=O)cc3C2=O)CC1 [Example VI, hydrochloride]
111%

* * *

- Measured target: α2
- Test method notes: in vitro α2 binding, [3H]Clonidine (Table IV)
- Condition info: [3H]Clonidine, brain tissue, 50 mM Hepes.KOH, pH 7.4; read-out: α2 Binding IC50
Structures can show the parent of a compound that is named as a salt.
Quantity measured: IC50

The following compounds have reported results that may help.
• NS(=O)(=O)c1cc2c(cc1Cl)CN(CCCN1CCN(Cc3ccccc3)CC1)C2=O = 1780 nM
• Cc1ccccc1N1CCN(CCCN2Cc3cc(Cl)c(S(N)(=O)=O)cc3C2=O)CC1 = 1430 nM
• NS(=O)(=O)c1cc2c(cc1Cl)CN(CCCN1CCN(c3cccc(Cl)c3)CC1)C2=O [Example II, hydrochloride hemihydrate] = 694 nM

Field request: IC50 | item: NS(=O)(=O)c1cc2c(cc1Cl)CN(CCCN1CCN(C(=O)c3ccc(F)cc3)CC1)C2=O
> 1000 nM

Then this compound: COc1ccccc1N1CCN(CCCN2Cc3cc(Cl)c(S(N)(=O)=O)cc3C2=O)CC1
555 nM

Then this compound: Cl.NS(=O)(=O)c1cc2c(cc1Cl)CN(CCCN1CCN(C(=O)c3ccccc3)CC1)C2=O.O [Example VII, hydrochloride monohydrate]
> 1000 nM

Then this compound: NS(=O)(=O)c1cc2c(cc1Cl)CN(CCCN1CCN(c3cccc(C(F)(F)F)c3)CC1)C2=O [Example IX, hydrochloride hemihydrate]
> 1000 nM

Then this compound: Cl.N#Cc1cccnc1N1CCN(CCCN2Cc3cc(Cl)c(S(N)(=O)=O)cc3C2=O)CC1 [Example VI, hydrochloride]
3330 nM

Then this compound: Cl.NS(=O)(=O)c1cc2c(cc1Cl)CN(CCCN1CCN(c3ccccc3)CC1)C2=O.O [Example X, hydrochloride hydrate]
666 nM

Then this compound: COc1ccccc1N1CCN(CCN2Cc3cc(Cl)c(S(N)(=O)=O)cc3C2=O)CC1
806 nM

Hello, the source for this data is patent US4585773A, in case you need it.
